Quick reference for viability, T/C among some compounds
test system: MDA-MB-468 multi-cell spheroids, viability; experiment: Anticancer human tumor MDA-MB-468 cell line growth inhibition [IpAb]; settings: second compound 3.16 µM; first compound 1 µM; stronger effect = lower value;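 also: spheroids exposed to agents for seven days; 100% = DMSO vehicle control viability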
measured_property: viability, T/C (%)

* C=CC(=O)N1CCN(c2nc(=O)n(-c3c(C)ccnc3C(C)C)c3nc(-c4c(O)cccc4F)c(F)cc23)C(C)C1 (stereo not given) + CC(C)NCC(C(=O)N1CCN(c2ncnc3c2C(C)CC3O)CC1)c1ccc(Cl)cc1 | 39.6
* Cn1nccc1Nc1nccc(-c2ccn(C(CO)c3ccc(Cl)c(F)c3)c(=O)c2)n1 (stereo not given) + CC(C)NCC(C(=O)N1CCN(c2ncnc3c2C(C)CC3O)CC1)c1ccc(Cl)cc1 | 23.4
* Cn1ncc(Cl)c1-c1cc(C(=O)NC(CN)Cc2cccc(F)c2)sc1Cl (stereo not given) + CC(C)NCC(C(=O)N1CCN(c2ncnc3c2C(C)CC3O)CC1)c1ccc(Cl)cc1 | 21.3
* CC1(C)CCC(CN2CCN(c3ccc(C(=O)NS(=O)(=O)c4ccc(NCC5CCOCC5)c([N+](=O)[O-])c4)c(Oc4cnc5[nH]ccc5c4)c3)CC2)=C(c2ccc(Cl)cc2)C1 + CC(C)NCC(C(=O)N1CCN(c2ncnc3c2C(C)CC3O)CC1)c1ccc(Cl)cc1 | 36.4
* Cc1nc(NC(=O)N2CCCC2C(N)=O)sc1-c1ccnc(C(C)(C)C(F)(F)F)c1 (stereo not given) + CC(C)NCC(C(=O)N1CCN(c2ncnc3c2C(C)CC3O)CC1)c1ccc(Cl)cc1 | 20.8

* * *

Quick reference for viability, T/C among some compounds
tested on: MDA-MB-468 multi-cell spheroids, viability; test: Anticancer human tumor MDA-MB-468 cell line growth inhibition [IpAb]; settings: second compound 0.316 µM; first compound 0.01 µM; stronger effect = lower value;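 also: spheroids exposed to agents for seven days; 100% = DMSO vehicle control viability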
measured_property: viability, T/C (%)

• COc1c(OCCCN2CCOCC2)ccc2c3n(c(=NC(=O)c4cnc(N)nc4)nc12)CCN3 + CC(C)NCC(C(=O)N1CCN(c2ncnc3c2C(C)CC3O)CC1)c1ccc(Cl)cc1 = 56.1
• CC(C)n1nc(-c2ccc3oc(N)nc3c2)c2c(N)ncnc21 + CCN1CCN(Cc2ccc(Nc3ncc(F)c(-c4cc(F)c5nc(C)n(C(C)C)c5c4)n3)nc2)CC1 = 54.7
• Cn1ncnc1[C@H]1c2n[nH]c(=O)c3cc(F)cc(c23)N[C@@H]1c1ccc(F)cc1 + CCN1CCN(Cc2ccc(Nc3ncc(F)c(-c4cc(F)c5nc(C)n(C(C)C)c5c4)n3)nc2)CC1 = 90.2
• CC(C)n1nc(-c2ccc3oc(N)nc3c2)c2c(N)ncnc21 + CC(C)NCC(C(=O)N1CCN(c2ncnc3c2C(C)CC3O)CC1)c1ccc(Cl)cc1 = 23.4
• Cn1ncnc1[C@H]1c2n[nH]c(=O)c3cc(F)cc(c23)N[C@@H]1c1ccc(F)cc1 + CC(C)NCC(C(=O)N1CCN(c2ncnc3c2C(C)CC3O)CC1)c1ccc(Cl)cc1 = 60.2
• COc1c(OCCCN2CCOCC2)ccc2c3n(c(=NC(=O)c4cnc(N)nc4)nc12)CCN3 + CCN1CCN(Cc2ccc(Nc3ncc(F)c(-c4cc(F)c5nc(C)n(C(C)C)c5c4)n3)nc2)CC1 = 98.7

* * *

system: MDA-MB-468 multi-cell spheroids, viability; assay: Anticancer human tumor MDA-MB-468 cell line growth inhibition [IpAb]; conditions: second compound 0.1 µM; first compound 0.00949 µM; stronger effect = lower value;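 also: spheroids exposed to agents for seven days; 100% = DMSO vehicle control viability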
# note: boundary value 90% maps to f; viability, T/C below it maps to t

- Cn1cnc2c(F)c(Nc3ccc(Br)cc3Cl)c(C(=O)NOCCO)cc21 + CCN1CCN(Cc2ccc(Nc3ncc(F)c(-c4cc(F)c5nc(C)n(C(C)C)c5c4)n3)nc2)CC1: f
- CC(C)(C)c1cnc(CSc2cnc(NC(=O)C3CCNCC3)s2)o1 + CCN1CCN(Cc2ccc(Nc3ncc(F)c(-c4cc(F)c5nc(C)n(C(C)C)c5c4)n3)nc2)CC1: f
- CC(=O)c1c(C)c2cnc(Nc3ccc(N4CCNCC4)cn3)nc2n(C2CCCC2)c1=O + CC(C)NCC(C(=O)N1CCN(c2ncnc3c2C(C)CC3O)CC1)c1ccc(Cl)cc1: t
- CC(C)(C)c1cnc(CSc2cnc(NC(=O)C3CCNCC3)s2)o1 + CC(C)NCC(C(=O)N1CCN(c2ncnc3c2C(C)CC3O)CC1)c1ccc(Cl)cc1: f
- Cn1cnc2c(F)c(Nc3ccc(Br)cc3Cl)c(C(=O)NOCCO)cc21 + CC(C)NCC(C(=O)N1CCN(c2ncnc3c2C(C)CC3O)CC1)c1ccc(Cl)cc1: t
